system: T1, Trypsinogen-IV (UniProt P35030 81-304)
T1 sequence (looked up): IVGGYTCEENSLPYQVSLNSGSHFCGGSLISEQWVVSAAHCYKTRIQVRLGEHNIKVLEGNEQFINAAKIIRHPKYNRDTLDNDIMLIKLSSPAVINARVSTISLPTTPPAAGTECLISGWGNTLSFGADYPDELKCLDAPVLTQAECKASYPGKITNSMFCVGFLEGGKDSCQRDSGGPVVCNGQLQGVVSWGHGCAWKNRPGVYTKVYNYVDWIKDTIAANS
methodNotes: cell-based or functional assay
# key: entry, value: activity against protease in selectivity screen (enzyme assay)

| binder | result |
| --- | --- |
| B5 IgG1 antibody (Fab B5 reformatted) (antibody, V domains shown) VH: EVQLLESGGGLVQPGGSLRLSCAASGFTFSRYRMYWVRQAPGKGLEWVSSISPSGGDTRYADSVKGRFTISRDNSKNTLYLQMNSLRAEDTAVYYCARGGPRGNKYYFDYWGQGTLVTVSS VL: SYELTQPPSVSVSLGQAANISCSGDRLGDKYTSWYQQQSGQSPVLVIYQDKKRPSGIPERFSGSSSGNTATLTISGAQAIDEAAYYCQAWATNVVFGAGTKLTVLG | < 5% |

Next, consider the following binder.
Request the reported activity against protease in selectivity screen (enzyme assay) associated with C9 IgG1 antibody (Fab C9 reformatted) (antibody, V domains shown) VH: EVQLLESGGGLVQPGGSLRLSCAASGFTFSRYPMFWVRQAPGKGLEWVSYISSSGGFTGYADSVKGRFTISRDNSKNTLYLQMNSLRAEDTAVYYCARGGPRGNKYYFDYWGQGTLVTVSS VL: QSVLTQPASVSGSPGQSITISCTGTSSDVGHYNYVSWYQQHPGKAPKVMIYDVSSRPSGVSDRFSGSKSGNTASLAISGLQAEDEADYYCSSYTSGDTLYVFGTGTKVTVLG < 5%
